# target or system: human Nav1.7 (Homo sapiens (Human))
# Sequence (Q15858 with tags, fused parts or gaps limits assumed): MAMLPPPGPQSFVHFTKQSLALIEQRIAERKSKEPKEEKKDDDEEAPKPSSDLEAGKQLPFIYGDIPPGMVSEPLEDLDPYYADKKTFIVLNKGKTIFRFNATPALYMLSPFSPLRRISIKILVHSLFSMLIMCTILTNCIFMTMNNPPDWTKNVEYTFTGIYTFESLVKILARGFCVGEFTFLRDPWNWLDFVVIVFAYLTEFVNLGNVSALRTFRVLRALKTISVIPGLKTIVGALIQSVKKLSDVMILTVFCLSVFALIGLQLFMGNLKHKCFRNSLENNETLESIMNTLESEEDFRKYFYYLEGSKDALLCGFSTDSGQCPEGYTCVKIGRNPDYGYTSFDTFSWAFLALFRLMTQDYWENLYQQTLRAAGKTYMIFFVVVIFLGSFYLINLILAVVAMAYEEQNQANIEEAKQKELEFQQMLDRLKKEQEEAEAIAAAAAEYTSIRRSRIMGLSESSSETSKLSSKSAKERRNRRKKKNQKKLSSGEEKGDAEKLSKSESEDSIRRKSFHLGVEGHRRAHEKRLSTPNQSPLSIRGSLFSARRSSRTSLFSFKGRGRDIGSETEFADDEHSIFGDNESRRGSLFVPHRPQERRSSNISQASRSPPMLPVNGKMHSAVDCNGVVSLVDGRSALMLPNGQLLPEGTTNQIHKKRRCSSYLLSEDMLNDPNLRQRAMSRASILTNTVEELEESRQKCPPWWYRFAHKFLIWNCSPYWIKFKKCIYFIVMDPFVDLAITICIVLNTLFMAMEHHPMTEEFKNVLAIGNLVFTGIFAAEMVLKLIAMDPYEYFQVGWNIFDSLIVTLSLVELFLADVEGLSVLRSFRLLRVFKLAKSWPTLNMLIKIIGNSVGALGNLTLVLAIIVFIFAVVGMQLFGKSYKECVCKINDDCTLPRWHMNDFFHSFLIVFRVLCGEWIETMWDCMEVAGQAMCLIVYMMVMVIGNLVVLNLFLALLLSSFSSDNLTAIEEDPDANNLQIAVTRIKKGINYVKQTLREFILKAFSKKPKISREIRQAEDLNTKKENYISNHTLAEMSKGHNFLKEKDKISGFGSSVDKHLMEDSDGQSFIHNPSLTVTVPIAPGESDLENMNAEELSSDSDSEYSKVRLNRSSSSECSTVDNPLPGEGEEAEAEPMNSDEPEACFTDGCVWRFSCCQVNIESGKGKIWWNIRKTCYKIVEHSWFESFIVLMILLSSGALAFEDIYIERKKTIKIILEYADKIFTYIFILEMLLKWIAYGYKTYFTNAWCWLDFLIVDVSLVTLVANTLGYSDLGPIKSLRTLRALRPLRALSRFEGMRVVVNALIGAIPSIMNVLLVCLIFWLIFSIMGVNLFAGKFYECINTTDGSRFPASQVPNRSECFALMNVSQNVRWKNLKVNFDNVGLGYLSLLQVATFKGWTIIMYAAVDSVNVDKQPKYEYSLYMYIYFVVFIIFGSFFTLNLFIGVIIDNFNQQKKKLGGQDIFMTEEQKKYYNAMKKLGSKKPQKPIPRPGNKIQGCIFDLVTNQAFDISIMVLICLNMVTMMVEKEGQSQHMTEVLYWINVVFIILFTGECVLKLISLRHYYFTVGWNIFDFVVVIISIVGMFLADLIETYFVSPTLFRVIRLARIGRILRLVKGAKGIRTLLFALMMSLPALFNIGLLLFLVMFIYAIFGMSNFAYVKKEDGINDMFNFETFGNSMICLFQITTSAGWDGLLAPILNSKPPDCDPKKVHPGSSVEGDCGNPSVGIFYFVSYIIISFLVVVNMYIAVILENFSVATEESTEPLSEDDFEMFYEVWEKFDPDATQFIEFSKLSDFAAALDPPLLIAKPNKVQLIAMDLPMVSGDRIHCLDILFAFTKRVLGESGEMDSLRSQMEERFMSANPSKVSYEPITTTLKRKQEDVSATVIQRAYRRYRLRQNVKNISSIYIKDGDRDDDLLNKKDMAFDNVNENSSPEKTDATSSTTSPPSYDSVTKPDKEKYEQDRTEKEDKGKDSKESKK
# method summary: FLIPR or FLIPR TETRA sodium dye assay with KCl and test article pre-incubation
# Type: cell-based
# assay conditions: read-out: Nav1.7 Activity (μM) FLIPR assay IC50 (μM) ± SEM
observable: IC50 (µM)
Answers are plain numbers, in µM.

{"molecule": "N#Cc1ccc(Oc2ccc(-c3cccc(C(=O)[C@H](O)CO)n3)cc2)cc1", "result unit": "µM", "IC50": 0.149}

Please supply IC50 for each of the following items, keeping them in order.
1. N#Cc1ccc(Oc2ccc(-c3cccc(C(=O)[C@H](O)CO)n3)cc2)cc1C(F)(F)F
2. N#Cc1cc(Oc2ccc(-c3cccc(C(O)C(N)=O)n3)cc2)ccc1C(F)(F)F (stereo not drawn)
3. O=C(c1cccc(-c2ccc(Oc3ccc(C(F)(F)F)cc3)cc2)n1)[C@H](O)CO
4. N#Cc1cc(Oc2ccc(-c3cccc(C(=O)[C@H](O)CO)n3)cc2)ccc1C(F)(F)F
5. O=C(c1cccc(-c2ccc(Oc3ccc(F)cc3)cc2)n1)[C@H](O)CO

// result
[0.365, 0.722, 0.136, 0.402, 0.133]

Values compiled from patent US9718780B2.
